The reported numbers originate from PubChem BioAssay (NCI).

Test system: IGROV1 ovarian
Experiment: NCI-60 one-dose screen, 48 h
Conditions: 10 µM unless noted
Compounds without any hit were thinned out: in the full panel of roughly 83,000, 20% have a hit. Calls of active or inactive are those of the source. Rule for the calls: active = growth percent below 10; inactive = the rest.
Outcomes: class 1 for active, class 0 for inactive

molecule | tested.system | group
CCN1CCN(CCNc2nccc(-c3c(-c4cccc(OC)c4)nc4occn34)n2)S1(=O)=O | IGROV1 ovarian | class 0
CN1CCN(C(=O)[C@]23CCC(C)(C)C[C@H]2C2=CC[C@@H]4[C@@]5(C)C/C(=C/c6ccncc6)C(=O)C(C)(C)[C@@H]5CC[C@@]4(C)[C@]2(C)CC3)CC1 | IGROV1 ovarian | class 0
COc1ccc2c(c1)C(=O)CC(c1ccccc1OC)O2 (stereo not given) | IGROV1 ovarian | class 0
COc1cc(OC)cc(C(=O)C[n+]2cccc3cc[nH]c32)c1 | IGROV1 ovarian | class 0
O=C(CCN1CCCC1)c1ccc([N+](=O)[O-])cc1 | IGROV1 ovarian | class 0
CC(c1ccccc1)C(C(=O)c1ccccc1)c1ccccc1 (stereo not given) | IGROV1 ovarian | class 0
O=C1Nc2cc(-c3ccc(NC(=O)C4CC4)cc3)ccc2/C1=C/c1ccc[nH]1 | IGROV1 ovarian | class 0
Cn1cc(CC2CC(=O)N(c3ccccc3)C2=O)sc1=NC(=O)c1ccccc1 (stereo not given) | IGROV1 ovarian | class 0
OCc1cnc2ccccc2c1NC1CCCCCC1 | IGROV1 ovarian | class 0
COc1ccc(OC)c(CCn2cncc2-c2c[nH]c3ccccc23)c1 | IGROV1 ovarian | class 0
CNC(=O)c1cccc(Cn2nc(C)c(NC(=O)c3ccc(COc4ccc(C(F)(F)F)cc4C)cc3)c2C)n1 | IGROV1 ovarian | class 0
COc1ccc(/C=C2\Oc3cc(OCCCN4CCCCC4)ccc3C2=O)cc1OC | IGROV1 ovarian | class 0
CCCCC[n+]1ccc(SCC(=O)N(C)c2ccc(Oc3ccccc3)cc2)c2ccccc21 | IGROV1 ovarian | class 0
COc1ccc(OC)c(-c2cc(-c3ccc(Cl)cc3)c3c(N)c(C(=O)c4ccc(Cl)cc4)sc3n2)c1 | IGROV1 ovarian | class 0
CN(C)c1ccc(Nc2c3ccccc3nc3cc(NC(=O)CCN4CCCC4)ccc23)cc1 | IGROV1 ovarian | class 1
Cc1cccc(C)c1N=c1oc2ccc(Cl)cc2nc1-c1ccccc1O | IGROV1 ovarian | class 0
COc1cc2nc(-c3ccc(C(F)(F)F)cc3)cc(OCCCN3CCOCC3)c2cc1OC | IGROV1 ovarian | class 0
Brc1ccc2[nH]cc(-c3cncn3CCc3ccccc3)c2c1 | IGROV1 ovarian | class 0
O=C(Nc1ccc(NC(=O)c2cc(=O)[nH]c3ccccc23)cc1)Nc1cccc(Cl)c1 | IGROV1 ovarian | class 0
CC(C)(C)[Si](C)(C)OC1[C@@H](O[Si](C)(C)C(C)(C)C)[C@@H](CNC(=O)NC(=O)CCl)O[C@H]1n1cnc2c(NC(=O)Nc3ccccc3)ncnc21 (stereo not given in full) | IGROV1 ovarian | class 1
COc1cc2nc(-c3ccc(Cl)cc3)cc(OCCCN3CCC(O)CC3)c2cc1OC | IGROV1 ovarian | class 0
COC1=CC(=O)c2ccccc2C1=O | IGROV1 ovarian | class 0
ClC1=C(Br)C(Br)(Br)C(=C(Br)Br)C1(Br)Br | IGROV1 ovarian | class 0
O=C(Nc1ccccc1)Nc1ccc2cc3ccc(NC(=O)Nc4ccccc4)cc3nc2c1 | IGROV1 ovarian | class 0
C=CCn1c(-c2ccc(-c3nc4ccc(C)cc4[nH]3)cc2)n[nH]c1=S | IGROV1 ovarian | class 0
